- assay summary: Metabolic stability in human liver microsomes assessed as clearance at 1 uM preincubated for 10 mins and measured upto 30 mins in presence of NADPH generating system by LC-MS/MS analysis
- Format: ADME, Microsome
- measurement setup: time < 40 min
observation type: CLhep predicted at 1 µM (mL/min/kg)
Give a bare numeral; the unit mL/min/kg is implied.

Some solved entries appear below for comparison.
smiles string	CLhep predicted at 1 µM [mL/min/kg]
O=C(Nc1ccc(F)cc1)N1CCn2ncc(-c3ccc(F)cc3)c2C1	14
C[C@H]1Cn2ncc(N3CCCC3=O)c2CN1C(=O)Nc1ccc(F)c(Cl)c1	11
C[C@H]1Cn2ncc(N3CCOCC3=O)c2CN1C(=O)Nc1ccc(F)c(Cl)c1	7.1

Request: So what's the measured CLhep predicted at 1 µM for this one? O=C(Nc1ccc(F)c(Cl)c1)N1CCn2ncc(NC3CCCC3)c2C1
Result: 19

Request: I would be grateful if you could share the reported CLhep predicted at 1 µM for O=C(Nc1cccc(Cl)c1)N1CCn2ncc(-c3ccc(F)cc3)c2C1 .
Result: 18

Request: Item under review: O=C(Nc1cc(F)c(F)c(F)c1)N1CCn2ncc(-c3ccc(F)cc3)c2C1 . Reported CLhep predicted at 1 µM?
Result: 16

Request: Quick one: CLhep predicted at 1 µM for C[C@H]1[C@H](C)n2ncc(N3CCCC3=O)c2CN1C(=O)Nc1cc(F)c(F)c(F)c1 ?
Result: 15

Request: Any idea what CLhep predicted at 1 µM was measured for O=C(Nc1ccc(F)c(Cl)c1)N1CCn2ncc(-c3ccc(F)cc3F)c2C1 ?
Result: 17

Request: Look at this compound and give its reported CLhep predicted at 1 µM. O=C(Nc1ccc(F)c(Cl)c1)N1CCn2ncc(N3CCOCC3)c2C1
Result: 7.2

Request: // lookup CLhep predicted at 1 µM for O=C(Nc1ccc(F)c(Cl)c1)N1CCn2ncc(-c3ccc(F)cn3)c2C1
Result: 16
